Target: Organic anion transporter 3 (Homo sapiens)
Sequence (Q8TCC7 whole entry): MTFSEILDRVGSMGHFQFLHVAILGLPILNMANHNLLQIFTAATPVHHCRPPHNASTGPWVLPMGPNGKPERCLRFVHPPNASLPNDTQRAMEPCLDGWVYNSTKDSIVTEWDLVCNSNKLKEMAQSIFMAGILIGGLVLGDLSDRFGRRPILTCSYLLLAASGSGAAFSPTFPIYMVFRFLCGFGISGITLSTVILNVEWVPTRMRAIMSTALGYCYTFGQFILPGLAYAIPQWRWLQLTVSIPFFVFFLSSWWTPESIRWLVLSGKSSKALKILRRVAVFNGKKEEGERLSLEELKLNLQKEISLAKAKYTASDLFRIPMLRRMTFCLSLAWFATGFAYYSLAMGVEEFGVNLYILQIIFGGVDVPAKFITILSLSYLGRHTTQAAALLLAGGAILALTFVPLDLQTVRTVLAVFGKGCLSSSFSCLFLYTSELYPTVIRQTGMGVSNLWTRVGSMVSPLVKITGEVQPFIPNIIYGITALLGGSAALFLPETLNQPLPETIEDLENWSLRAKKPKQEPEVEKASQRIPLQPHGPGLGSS
Test: Inhibition of OAT3 (unknown origin) expressed in HEK293 cells assessed as reduction in 6-CF uptake measured after 5 mins by fluorescence assay
Each record is given Yes if its reported IC50 is strictly below 3000 nM. Records at or above 3000 nM are given No.

{"columns": ["compound", "target.or.test.system", "class.label"],
 "data": [
  ["COC(C)c1cc(O)cc2c1-c1ccc(O)c(C)c1CC2 (racemic)", "Organic anion transporter 3 (Homo sapiens)", "No"],
  ["C=Cc1cc2c(cc1C(=O)O)CCc1c-2ccc(O)c1C", "Organic anion transporter 3 (Homo sapiens)", "Yes"],
  ["C=Cc1c(C(=O)O)ccc2c1CCc1c-2ccc(O)c1C", "Organic anion transporter 3 (Homo sapiens)", "Yes"]
]}

Prompt: Answer whether the compound C=Cc1cc(O)cc2c1-c1ccc(O)c(C)c1CC2 has IC50 strictly less than 3000 nM
Response: No

Prompt: Answer whether the compound C=Cc1cc(C(=O)O)cc2c1-c1ccc(O)c(C)c1CC2 has IC50 strictly less than 3000 nM
Response: Yes

Prompt: Answer whether the compound C=Cc1cc(C(=O)O)cc2c1CCc1c-2ccc(O)c1C has IC50 strictly less than 3000 nM
Response: Yes

Prompt: Answer whether the compound C=Cc1c(C)c(O)cc2c1-c1ccc(O)c(C)c1CC2 has IC50 strictly less than 3000 nM
Response: No

Prompt: Answer whether the compound COc1cc(C(=O)c2ccc(O)c(OC)c2)ccc1O has IC50 strictly less than 3000 nM
Response: Yes
